# maps each entry to its apparent KD of MS2 coat protein
# System: MS2 coat protein
# assay-explanation: apparent KD of MS2 coat protein; designed switch direction (-1 OFF switch, 1 ON switch): 1; higher = weaker reporter binding
# test-settings: input ligand: none
experimental-readout: apparent KD of MS2 coat protein (nM)

>>> value_observed("GGAAAGAGGUAAGGAUAUGCAUGGCUGGGACAUGAGGAUCACCCAUGUUGGAGAAGAAAUCUAGGGUAGAAGGUACAAGGAAGG [AK SSNG2-V2-10] (Eterna round: R96, puzzle: Same State NG 2)")
203
>>> value_observed("GCACUGGCGGUAGGAUAUCUAGGAUAUGGGAAAGACUAAGUCUGUAGGUCACCUAACCCAGAAGGAGAGAAGGACCCUGUAAGG [pwkr ssNG2 2FMN + F9.22] (Eterna round: R96, puzzle: Same State NG 2)")
18.1
>>> value_observed("AUAAAACAUGAGGAUCACCCAUGUAGACACGAUGGAGGAUAUACUAGAUCGAAAGAUCUAGUAGAAGGCCGACGUA [Mat - Same State 1 - JL mod - D95] (Eterna round: R96, puzzle: Same State 1)")
19.7
>>> value_observed("ACAUGAGACCAAGGAUAUCUUGUACCUACAUGUGACAUGAGGAUCACCCAUGUGGUAAGUAUGAGGGAGAAGGUGGAGAUAUGU [Equivalence 25 - Jieux - Same State NG 2] (Eterna round: R96, puzzle: Same State NG 2)")
36.7
>>> value_observed("UUAUACUAGAGAGGAUAUGCAGAGGAUCACCCUGCAGAAGGCUCAUUAGAGAGGAUAUGCAGAGGAUCACCCUGCAGAAGGCUC [pwkr ssNG DX.21] (Eterna round: R96, puzzle: Same State NG 1)")
20.1
>>> value_observed("GAAAGCAUGGGAGGAUAUAGCCUCUAUGGAGGGCUAGAAGGCCCUGGCCACAUGAGGAUCACCCAUGUGAAAUAAAUAGAAGAA [MOD Raarceza] (Eterna round: R96, puzzle: Same State NG 1)")
188
>>> value_observed("GUGACCUCCCUAGGAUAUCGCCAAAUGUGAUGUCGACAUGAGGAUCACCCAUGUAUAGUCACGAACGAGAAGGAGGGUGUGGCA [Cesodi] (Eterna round: R96, puzzle: Same State NG 2)")
19.4
>>> value_observed("UAGCUUGUGGUAGGAUAUCUAGGAUAUGGGAAGAGCUAAGCUUGGAAGUCACUUCACCCAGAAGGAGAGAAGGACCAGAGGCUU [pwkr ssNG2 2FMN + F9.6] (Eterna round: R96, puzzle: Same State NG 2)")
262
>>> value_observed("ACUCAGUACAAUUUAGAUCUACAUGAGGAUCACCCAUGUACUGAGGAUAUCAGCUCGAUUAGAGCUGAGAAGGCAGUUGUACUA [SSNG3/10-A2] (Eterna round: R96, puzzle: Same State NG 3)")
125

* * *

# Test system: MS2 coat protein
# assay-explanation: apparent KD of MS2 coat protein; higher = weaker reporter binding
# test-settings: Eterna round: R107; input ligand: theophylline 20 uM
experimental-readout: apparent KD of MS2 coat protein

>>> value_observed("UCGUGUAUAACGGAUACCAGUGAGAAGGAUACAUGAGGAUCACCCAUGUGAGUUGAUGUACACCCUUGGCAGCUGUAUAUAUCUA [llpmullin]")
"81.9 nM"
>>> value_observed("UGUAUGUGAUCUGAUACCAGCUUUGAUAACCUGAGGAUCACCCUGGUAAAGGCGAAAGCCAGCCCUUGGCAGCAGAUCGCAUACU")
"39.6 nM"
>>> value_observed("UACAUGAGGAUCACCCAUGUCUGAACUGAAGGAGCGCUAAAUAAGGCAGGUAGGUCGCGGAAUUUUGUGUGCAUAUGCAUAUGGG [9.L]")
"39.4 nM"
>>> value_observed("GCCUAGCAUCGAAGGAGCGGGCAUUACGCGCGAAAGCGCGAUACUUGAGGAACACCCAAGUCCCAGGUAGGUCGCGAUGCUAGGC [SSAB Alternative Aptamer #3 NP+V+V2]")
"127 nM"
>>> value_observed("GAUUACAUGAGGAUCACCCAUGUAACUGAAGGAGCGGUGAUAAAGCCAGGUAGGUCGCAGAACGACAUGUGGUUCAUCCAUGUAA [#16 Exclusion - Arginine A]")
"43.9 nM"
>>> value_observed("UAAAAUAAUAAUGAUACCAGCCCUCCCUCCCGGGACAUGAGGAUCACCCAUGUCUCUCCCGGCCCUUGGCAGCAUAAAUAAUAAU [Same Stare - Theophylline B]")
"15 nM"

* * *

As shown below, each of these sequences has a reported apparent KD of K4 kissing-loop reporter value.
# System: K4 kissing-loop RNA reporter;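 further: bound reporter read as fluorescence of individual clusters on recovered sequencing chips by microscopy, with normalized cluster intensities fitted with a binding model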
# assay-explanation: apparent KD of K4 kissing-loop reporter; higher = weaker reporter binding
# test-settings: Eterna round: R107; input ligand: none
experimental-readout: apparent KD of K4 kissing-loop reporter

>>> value_observed("AAAUAGAUCAGUCAUCCAGUGAUGUUGGAAGGAGCGUGCGAAAGCACAGGUAGGUCGCCAAAAUAAAACUGGCUGAUCAAAAUAA")
"0.338 µM"
>>> value_observed("AAACAUCACUGGGAGUGAUGUUCUCAGUGACGAGGACCGGUACGGCCGCCACUCGCGAGAGAUAUAGAUAAGUAAUGACAUCAUU [Excl Tryptophan A V4]")
"0.354 µM"
>>> value_observed("GAGAUAGAGGCGGCCGCCACUAGUGAUGUUAGUGAUGUUAGAUAGAGAAUAGAACAGAGGUAGGAUAGGACCGGGCCAGAUAGAG [whbob_SS_Tryp_B_w31]")
"0.0624 µM"
>>> value_observed("UUAGAGAUCUCAGGAUAUCAGUGAUGUUGGUGUGCAGAUCUGAGAUAGAAUUCUAUCUCAGAUCAAUGAGAAGGGAGAUCUCAUU [AK5 Exc FMN B]")
"0.152 µM"
>>> value_observed("GGAUAGGACAAAGGAUAUGGGCUAGGCAAGAAUAACUUGUCUAGCAAAUCCAUGAGGAGUGAUGUUCCAGAAGGUUGUCCUAUCG [FmnBX 1 A11+U75]")
"0.122 µM"
>>> value_observed("ACUAGUUAAUCGGCCGCCACUUCUAGUGAUGUUAGAAUUAUCCAGAUUAUCAGCGUAGCACAUUGAAGGACCGGGAUAAGGUGGU [theeternabot_exclusion_KL_Trp_B_2]")
"0.269 µM"
>>> value_observed("AUGCCUCUGGCUGAUACCAGUGAUGCAGGGUAUGAGACAGGGAGUGAUGUUCCCUGCAGCCACCCUUGGCAGCAGUUUAAGUUUG [Exclusion Theophylline B GF 20]")
"0.185 µM"
>>> value_observed("CCAUUCUUUUACGAUACCAGUUUUAUUUAGUUAUUCAUAACCCUUGCCGAGUGAUGUUCGGACCCUUGGCAGCGUUUGCGAGAGG [zaadvmullin]")
"0.355 µM"
>>> value_observed("AUACGUUUAAGUGAUACCAGACAUGUGAGUGAUGUUUACAAAUAAAUUAAAUUUUUAGCUGUCCCUUGGCAGCACAGUUUAUUUA [JR_ExcTheophyB_Sub002]")
"0.594 µM"
>>> value_observed("ACGCGCGCGAGUGAUGUUCGGAGCGGCUGGCAGGAUAUGUAGCAAUGCAGAAGGGUCGUGGCGGGCGCGGCGAAAGCCGCGCCCG [#2 Exclusion - FMN A Attempt #6 (HarryS)]")
"0.444 µM"
>>> value_observed("GACUGGUUAACAGAUACCAGCCACAAGCGUUGAGGCGGCGGUAAAGUGAUGUUUUAUAAAGGCCCUUGGCAGCUGACUAGUUCGU [theeternabot_exclusion_KL_Theo_B_28]")
"0.383 µM"
>>> value_observed("AAAUUCUUUUUUUUAUAUAACAAUUCAGAAGGAGCGUGGUAGAACACAGGUAGGUCGCUGAAUAUAAGACUAGUGAUGUUAGUAA [JR_SSArginiA_Sub010]")
"0.203 µM"

* * *

# Test system: MS2 coat protein
# assay-explanation: apparent KD of MS2 coat protein; designed switch direction (-1 OFF switch, 1 ON switch): 1; higher = weaker reporter binding
# test-settings: input ligand: microRNA oligo, concentration not stated
apparent KD of MS2 coat protein reference
experimental-readout: apparent KD of MS2 coat protein (nM)

>>> value_observed("GUAGCAUACCGAGGAUAUUCAUAUUAAAUACAUGAGGAUCACCCAUGUAAGGCCAAAAGGCCUUGGGAGAAGGCGGAAUGCUAC [Xeonanis - 20 Mod3] (Eterna round: R96, puzzle: Same State NG 2)")
32.5
>>> value_observed("AGUAGUUUAACAUGAGGAUCACCCAUGUAUCUAUCUGUAACCUAGGAUAUGGACGUUUUAUUUAACCAGAAGGAGGAUCGUUUA [JR_SSNG3_Sub045] (Eterna round: R96, puzzle: Same State NG 3)")
16.9
>>> value_observed("GCUAGAAAUAAAGCCAACAUGAGGAUCACCCAUGUAUGUUGGCAGGAUAUCGUUUGCUUUGCAAACGAGAAGGGCCAAACUAGC [Mat - Same State NG 3 - JL Mod - D1] (Eterna round: R96, puzzle: Same State NG 3)")
127
>>> value_observed("GCAUUAGGCAUAGGAUAUCCAACAUGAGGAUCACCCAUGUCGCAGCGUGAAAAGAACGCUGCAAAGGAGAAGGAUGCGGUUUAC [Onususa] (Eterna round: R96, puzzle: Same State NG 2)")
18.8
>>> value_observed("GGCGUCUGUCAAGGAUAUGCUACCGUUUCGGUAGCAGAAGGUGAUCACAUGAGGAUCACCCAUGUUUAGGCCAACAGGCCCGCC (Eterna round: R96, puzzle: Same State NG 1)")
222
>>> value_observed("ACAUGAGACAAAGGAUAUGGUGUACCUACAUGUGACAUGAGGAUCACCCAUGUGGUAAGUAUGACUCAGAAGGUUGAGAUAUGU [Equivalance 74 - Jieux - Same State NG 2] (Eterna round: R96, puzzle: Same State NG 2)")
203
>>> value_observed("GCCAACACAUGAGGAUAUGGCACCUUAUUGGUGCCAGAAGGCAUGUGAAUUCACAUGAGGAUCACCCAUGUAUUAUAGUUGGCA [Fiskers NG1ss - 19] (Eterna round: R96, puzzle: Same State NG 1)")
75.1
>>> value_observed("UGGCUGGUGCUAGGAUAUGCAUGAGGCCUCCUCGUAGAAGGAGCACGACAUGAGGAUCACCCAUGUGGCCGUCCGUGGACGGCU [salish99_SSNG1_r04_014] (Eterna round: R96, puzzle: Same State NG 1)")
44.9
>>> value_observed("GUUACAUGAGGAUCACCCAUGUAUGUGUGGGAGUAAGUGUCUUAGGAUAUCUAGUAUUUAAUGUAAGAGAAGGAAGAUUGUUGU [JMF's solution 64] (Eterna round: R96, puzzle: Same State NG 3)")
106
